Source of measurements: PubChem BioAssay (NCI)

We begin with a simple list: items and their reported GI50.
- System: UO-31 renal
- Protocol Summary: NCI tumour cell line growth inhibition, 48 h

# Compound, GI50
records = [
    ("COc1ccc2c(CN3CCC[C@H]3C(=O)O)cc3cc4c(cc3c2c1)OCO4", "17 µM"),
    ("O=C(Nc1cc[c]([Sb](=[O])([OH])[OH])cc1)c1ccccc1", "> 100 µM"),
    ("O=CN1N=C(c2ccc(Cl)cc2)CC1c1cccc(Nc2ccnc3cc(Cl)ccc23)c1 (stereo not given)", "1.7 µM"),
    ("Cc1ccc(NC(=O)CC(=O)n2nc(-c3ccccc3)c(N=Nc3ccccc3Cl)c2-c2ccccc2)cc1", "> 100 µM"),
    ("O=C(N/N=C/c1ccccc1Cl)c1ccccc1Nc1ccnc(C(F)(F)F)c1", "1.92 µM"),
]

---

We begin with a simple list: items and their reported TGI.
- System: MCF7 breast
- Protocol Summary: NCI tumour cell line growth inhibition, 48 h

# Compound, TGI
records = [
    ("O=CN1N=C(c2ccc(Cl)cc2)CC1c1cccc(Nc2ccnc3cc(Cl)ccc23)c1 (stereo not given)", "16 µM"),
    ("O=C1c2c(ccc3c2CCC3)CC12Cc1cc3c(cc1C2)CCC3", "> 100 µM"),
    ("COc1ccc(C2=C(N)c3c(OC)cccc3C2=O)cc1", "> 100 µM"),
    ("COC(=O)C1=Cc2cc(OC)c(O)cc2[C@@H](c2ccc(O)c(OC)c2)[C@@H]1C(=O)OC", "> 100 µM"),
    ("O=C1c2cc([N+](=O)[O-])ccc2-c2cccc(F)c21", "> 100 µM"),
]

---

- System: TK-10 renal
- Protocol Summary: NCI tumour cell line growth inhibition, 48 h; in the data active = GI50 below about 0.43 µM; inactive = the rest
Where a SMILES comes first, the peptide text is derived from it. [ ]: non-standard residue; d: D form. The star is where a group is joined. ξ: configuration not given here. NMeN = CN[C@@H](CC(N)=O)C(=O)O; NMeV = CN[C@H](C(=O)O)C(C)C; ξNMeV = CNC(C(=O)O)C(C)C; Boc = CC(C)(C)OC(=O)*; ξNMeA = CNC(C)C(=O)O
Possible outcomes: yes for active, no for inactive

# Molecule, Qualitative Label
measured = [
    ("c1cc(OCCN2CCCCC2)ccc1CNc1ccc2nc(CCC3CCCCC3)[nH]c2c1", "no"),
    ("COc1ccc2c(c1)OC1=C(C(=O)OC1)C2c1cc(OC)c(OC)c(OC)c1 (centres undefined)", "no"),
    ("C=C[C@H]1CCC/C=C/[C@@H]2C[C@H](O)C[C@H]2[C@H](O)/C=C/C(=O)O1", "yes"),
    ("Cc1ccc(-c2nc(N)nc3c2nnn3Cc2cccc(CO[C@H]3CCOC3)n2)o1", "no"),
    ("C=CCN(CC=C)C(=O)c1cc(C)nc2c1c(=O)n(-c1ccccc1)c(=O)n2CC(O)CN1CCN(c2ncccn2)CC1 (centres undefined)", "no"),
    ("COc1cc2cc(C(=O)Nc3cc(N)c4ccccc4c3CCCl)[nH]c2c(OC)c1OC", "yes"),
    ("Nc1ccc2c3c(n(CCCCl)c(=O)c2c1)-c1cc2c(cc1C3=O)OCO2", "no"),
    ("Cc1cc(I)cc(CN(C)CCN2CCCC2)c1O", "no"),
    ("Cc1cc(N2CCN(c3ccnc4cc(Cl)ccc34)CC2)nc(NC2CCCCC2)n1", "no"),
    ("COC(=O)c1c2c(c(C)[n+]([O-])c1C)C(=O)C=C(NCc1ccc(OC)cc1)C2=O", "no"),
    ("NC(=N\\N=C/c1cccc([N+](=O)[O-])c1)/C(N)=N\\N=C/c1cccc([N+](=O)[O-])c1", "no"),
    ("CC1(C)CC(n2cnc(-c3ccc(F)cc3)c2-c2ccnc(N)n2)CC(C)(C)N1", "no"),
    ("C=CCN1C=CC(=O)[C@H](O[Si](C)(C)C(C)(C)C)[C@@H]1/C=C/c1ccccc1", "no"),
    ("COc1ccc2c(CN3CCC[C@H]3C(=O)O)cc3cc4c(cc3c2c1)OCO4", "no"),
    ("O=C(CC12CC3CC(CC(C3)C1)C2)NCCOCCOCCOCCNC(=O)c1cc2c(o1)C(=O)c1ccccc1C2=O", "no"),
    ("CC/C(=C(/CC)c1ccc(O)cc1)c1ccc([O-])cc1.CC/C(=C(/CC)c1ccc(O)cc1)c1ccc([O-])cc1.O=C([CH-]C(=O)c1ccccc1)c1ccccc1.O=C([CH-]C(=O)c1ccccc1)c1ccccc1.[Ti+4]", "no"),
    ("Cc1cc(N2CCCC2)nc(NC2CCCC(Nc3ccnc4cc(Cl)ccc34)C2)n1 (centres undefined)", "no"),
    ("COC(=O)C(C)N(C)C(=O)[C@H](CC(N)=O)N(C)C(=O)[C@@H]1CCCN1C(=O)[C@H](C(C)C)N(C)C(=O)C(C(C)C)N(C)C(=O)[C@@H](NC(=O)OC(C)(C)C)C(C)C (some centres undefined) (Boc-V[ξNMeV][NMeV]P[NMeN][ξNMeA]-OMe)", "no"),
    ("C[C@@H]1N=C(c2ccc(Br)cc2)Nc2nc3ccccn3c2C1=O", "no"),
]

---

- Tested on: NCI-H23 lung
- Protocol Summary: NCI tumour cell line growth inhibition, 48 h
Assay Endpoint: TGI

# Compound, Meas Value
rows = [
    ("C[C@@H]1N=C(c2ccc(Br)cc2)Nc2nc3ccccn3c2C1=O", "> 100 µM"),
    ("COC(=O)C1=C(\\c2ccccc2)c2ccccc2C(=O)N(C2CCCCC2)/C=C\\1", "> 100 µM"),
    ("CN1CCCCCC(=N\\O)/C(=N/O)CCCCC1", "> 100 µM"),
    ("CC(=O)NC1C(O)C(O)C(CO)OC1n1ncc(=O)[nH]c1=O (stereo unspecified)", "> 100 µM"),
    ("NNc1nc2ccccc2s1", "> 100 µM"),
    ("COC(=O)C1=Cc2cc(OC)c(O)cc2[C@@H](c2ccc(O)c(OC)c2)[C@@H]1C(=O)OC", "> 100 µM"),
    ("CCCCc1ccc(-n2c3nc(=O)n(C)c(=O)c-3nc3ccccc32)cc1", "8.19 µM"),
    ("COc1ccc(CNc2c3ccccc3nc3ccc(OC)cc23)cc1", "4.71 µM"),
    ("COc1cc(C(=O)C/C(CCC(=O)Nc2ccc(Cl)cc2C)=N/NC(=O)C(N)=O)ccc1O", "> 100 µM"),
    ("O=c1ccnc2c1ccc1[nH]cccc12", "> 100 µM"),
    ("COc1cccc2c(Nc3ccc(S(=O)(=O)NC(C)=O)cc3)c3ccc([N+](=O)[O-])cc3nc12", "> 100 µM"),
    ("O=C(O)C1Cc2c([nH]c3ccccc23)C=N1 (stereo unspecified)", "> 100 µM"),
    ("N=C(N)c1csc([C@@H]2O[C@H](CO)[C@@H](O)[C@H]2O)n1", "> 100 µM"),
    ("C=C1CC(C)(COc2ccc3ccc(=O)oc3c2)OC1=O (stereo unspecified)", "12.3 µM"),
    ("COc1cc(Nc2cnc3cc(F)c(F)cc3n2)cc(OC)c1", "91 µM"),
    ("CC1=NN(C(=O)c2ccccc2O)C(=O)/C1=C/c1ccccc1O", "20.9 µM"),
    ("O=C([O][Hg][CH2]C1COCC([CH2][Hg][O]C(=O)c2ccccc2)O1)c1ccccc1 (stereo unspecified)", "36.8 µM"),
    ("Nc1ccc2c3c(n(CCCCl)c(=O)c2c1)-c1cc2c(cc1C3=O)OCO2", "25.8 µM"),
    ("Cc1cccc(C)c1NC(=S)NC=C(C(N)=O)C(N)=O", "> 100 µM"),
    ("NC(=N\\N=C/c1cccc([N+](=O)[O-])c1)/C(N)=N\\N=C/c1cccc([N+](=O)[O-])c1", "> 100 µM"),
    ("Cc1cc(C)nc(NS(=O)(=O)c2ccc(Nc3c4ccc(Cl)cc4nc4c(C(=O)Nc5ccc(S(=O)(=O)N=C(N)N)cc5)cccc34)cc2)n1", "> 100 µM"),
]

---

- Test system: OVCAR-8 ovarian
- Protocol Summary: NCI tumour cell line growth inhibition, 48 h
We begin with a simple list: items and their reported GI50.

# Compound, GI50
measured = [
    ("CC[Si](CC)(CC)OC[C@]1([C@@H]2COC(C)(C)O2)CC=CC(=O)O1", "26400 nM"),
    ("COc1ccc2c(c1)OC1=C(C(=O)OC1)C2c1cc(OC)c(OC)c(OC)c1 (centres undefined)", "709 nM"),
    ("CC[O-].CC[O-].O=C1C(c2ccccc2)=C([O-])c2ccccc21.O=C1C(c2ccccc2)=C([O-])c2ccccc21.[Ti+4]", "> 100000 nM"),
    ("Cc1ccc(-c2nc(N)nc3c2nnn3Cc2cccc(CO[C@H]3CCOC3)n2)o1", "> 100000 nM"),
    ("O=S(=O)(c1ccc(N=C2NN=C(c3c[nH]c4ccccc34)CS2)cc1)N1CCOCC1", "9610 nM"),
    ("c1cn2cc(-c3ccc4ncn(C5CCCCC5)c4c3)nc(-c3ccc4c(c3)ncn4C3CCCCC3)c2n1", "2550 nM"),
    ("NC(=O)c1ccc2c(-c3ccnc(NCCCO)n3)c(-c3ccc(F)cc3)nn2c1", "> 25000 nM"),
    ("Cc1cc(N2CCN(c3ccnc4cc(Cl)ccc34)CC2)nc(NC2CCCCC2)n1", "2390 nM"),
    ("Cc1cc(N2CCCC2)nc(NC2CCCC(Nc3ccnc4cc(Cl)ccc34)C2)n1 (centres undefined)", "1920 nM"),
]
